Binding Signal (fold over 6E7 parental antibody) values for the binders below.
# TARGET: T1, human TREM2 (triggering receptor expressed on myeloid cells 2) (human) (UniProt Q9NZC2)
# T1 sequence (looked up): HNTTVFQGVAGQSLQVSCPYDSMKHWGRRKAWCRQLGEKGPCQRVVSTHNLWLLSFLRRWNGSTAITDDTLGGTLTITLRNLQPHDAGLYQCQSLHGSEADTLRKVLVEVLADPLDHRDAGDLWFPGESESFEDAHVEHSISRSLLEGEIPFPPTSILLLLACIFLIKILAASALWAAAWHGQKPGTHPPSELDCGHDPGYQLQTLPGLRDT
# PROTOCOL_DESCRIPTION: 2nd screen, 2 nM Ab
Provide only the numeric value, understood in fold.

Look over these answered cases.
| BINDER | U | RESULT_NUMBER |
| --- | --- | --- |
| 6E7 antibody affinity modulation variant V2 (antibody, V domains shown) VH: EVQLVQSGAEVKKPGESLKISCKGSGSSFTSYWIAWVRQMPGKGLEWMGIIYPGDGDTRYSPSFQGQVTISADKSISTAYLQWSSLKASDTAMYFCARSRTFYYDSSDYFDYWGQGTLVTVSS VL: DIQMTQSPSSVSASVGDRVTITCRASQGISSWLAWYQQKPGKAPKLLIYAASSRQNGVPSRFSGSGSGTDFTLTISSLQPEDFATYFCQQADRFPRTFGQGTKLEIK | fold | 2.23 |
| 6E7 antibody affinity modulation variant V53 (antibody, V domains shown) VH: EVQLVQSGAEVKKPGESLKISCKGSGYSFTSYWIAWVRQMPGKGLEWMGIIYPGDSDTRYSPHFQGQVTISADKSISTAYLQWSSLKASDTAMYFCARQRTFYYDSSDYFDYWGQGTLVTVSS VL: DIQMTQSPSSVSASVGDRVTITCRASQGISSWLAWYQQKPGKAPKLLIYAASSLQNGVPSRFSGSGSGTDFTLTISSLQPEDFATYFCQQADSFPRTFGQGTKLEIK | fold | 0.66 |
| 6E7 antibody affinity modulation variant V48 (antibody, V domains shown) VH: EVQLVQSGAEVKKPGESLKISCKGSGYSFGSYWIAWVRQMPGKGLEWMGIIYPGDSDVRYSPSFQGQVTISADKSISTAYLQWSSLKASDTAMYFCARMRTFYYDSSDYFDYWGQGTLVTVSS VL: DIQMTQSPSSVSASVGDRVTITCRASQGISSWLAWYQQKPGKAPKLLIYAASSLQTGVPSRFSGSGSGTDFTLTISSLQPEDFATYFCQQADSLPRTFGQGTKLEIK | fold | 2.3 |
| 6E7 antibody affinity modulation variant V39 (antibody, V domains shown) VH: EVQLVQSGAEVKKPGESLKISCKGSGYSFGSYWIAWVRQMPGKGLEWMGIIYPGDSDTRYNPSFQGQVTISADKSISTAYLQWSSLKASDTAMYFCARGRTFYYDSSDYFDYWGQGTLVTVSS VL: DIQMTQSPSSVSASVGDRVTITCRASQGISSWLAWYQQKPGKAPKLLIYAASSLVNGVPSRFSGSGSGTDFTLTISSLQPEDFATYFCQQADSSPRTFGQGTKLEIK | fold | 5.11 |

# ---- query binder ----
Name the reported Binding Signal (fold over 6E7 parental antibody) value associated with the binder 6E7 antibody affinity modulation variant V4 (antibody, V domains shown) VH: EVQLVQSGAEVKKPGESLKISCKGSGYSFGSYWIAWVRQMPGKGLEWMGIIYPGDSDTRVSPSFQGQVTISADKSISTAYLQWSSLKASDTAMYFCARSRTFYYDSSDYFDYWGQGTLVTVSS VL: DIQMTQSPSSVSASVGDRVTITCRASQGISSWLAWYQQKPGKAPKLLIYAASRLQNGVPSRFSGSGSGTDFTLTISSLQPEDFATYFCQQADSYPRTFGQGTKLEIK
5.88

Ref: patent US20250019437A1
